# credit: PubChem BioAssay

target: Beta-adrenergic receptor kinase 1 (Homo sapiens); assay: GRK2 binders displacing RNA aptamer, biochemical, validation, human GRK2, bead flow cytometry (AID 488806); conditions: bead-bound GRK2, FAM-aptamer displacement, at 10 µM, stronger effect = higher value
Activity calls are given as the source filed them.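 The calls were made as follows: active = aptamer binding inhibition above 30%, about 3 SD of noise from non-fluorescent compounds; inactive = inhibition at or below 30%.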
Recorded aptamer binding inhibition, one value per entry.
METRIC_NAME: aptamer binding inhibition

[[record]]
compound = "O=C(/C=C/c1ccc(F)cc1)N1CC[C@@]2(O)CCCC[C@H]2C1"
observed_value = "3% (inactive)"

[[record]]
compound = "COc1ccc(-c2cc(C(=O)N3CCOCC3)c3cc(C)ccc3n2)cc1"
observed_value = "1% (inactive)"

[[record]]
compound = "Cc1ccc2nc(C)c3c(c2c1)OC(C(C)(Cl)Br)C3 (stereo not drawn)"
observed_value = "5% (inactive)"

[[record]]
compound = "Cc1cccc(CN2CCN(C(c3ccccc3)c3ccc(Cl)cc3)CC2)c1 (stereo not drawn)"
observed_value = "2% (inactive)"

[[record]]
compound = "COc1ccc(NC(=O)N2CCCCC2c2cccnc2)cc1 (stereo not drawn)"
observed_value = "7% (inactive)"

[[record]]
compound = "COc1ccc2c(c1OC)C(=O)OC2C1c2c(cc3c(c2OC)OCO3)CCN1C (stereo not drawn)"
observed_value = "5% (inactive)"

[[record]]
compound = "COc1ccc(-c2c[n+](CC(=O)OC3CC(C)CCC3C(C)C)c3n2CCC3)cc1 (stereo not drawn)"
observed_value = "-6% (inactive)"

[[record]]
compound = "CC(=O)Nc1ccccc1C(=O)C(=O)Nc1ccccc1"
observed_value = "1% (inactive)"

[[record]]
compound = "Cc1cccc(-c2ncc(CN3CCN(CC(C)C)C(CCO)C3)cn2)c1 (stereo not drawn)"
observed_value = "2% (inactive)"

[[record]]
compound = "COc1ccc(C(=O)Nc2ncc3c(n2)CC(C)CC3=O)cc1 (stereo not drawn)"
observed_value = "-2% (inactive)"

[[record]]
compound = "CN(C)CCOC(c1ccccc1)c1ccccc1"
observed_value = "-1% (inactive)"

[[record]]
compound = "CC1=NS(=O)(=O)c2cc(Cl)ccc2N1"
observed_value = "3% (inactive)"

[[record]]
compound = "O=C(Oc1ccccc1)Oc1ccc2c(c1)oc(=O)c1ccccc12"
observed_value = "2% (inactive)"


* * *

molecular target: GTPase HRas (Homo sapiens) (UniProt P01112); experiment: Ras wt fluorescent GTP loading blockade – biochemical, wildtype, multiplex bead flow cytometry, dose response (AID 1335); conditions: bead-based flow cytometry, Bodipy-GTP binding to GST-Ras; at 100 µM (top of the series) unless noted
Sequence (P01112 whole entry, looked up): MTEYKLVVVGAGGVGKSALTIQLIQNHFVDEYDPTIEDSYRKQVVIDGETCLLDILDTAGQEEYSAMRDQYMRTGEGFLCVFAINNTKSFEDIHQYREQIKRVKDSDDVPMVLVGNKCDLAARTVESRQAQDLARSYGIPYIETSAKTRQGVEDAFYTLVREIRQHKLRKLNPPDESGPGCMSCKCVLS
Listed here are molecules together with their documented GTP binding, percent of control.
METRIC_NAME: GTP binding, percent of control

[[record]]
molecule = "O=C(O)c1cccnc1Oc1ccc2c(c1)OCO2"
observed_value = "92%"

[[record]]
molecule = "Cc1ccc(-c2noc(CN3C(C)CCCC3C)n2)cc1 (configuration not stated)"
observed_value = "62.9%"

[[record]]
molecule = "CN1CCN(S(=O)(=O)c2cccc(C(=O)Nc3sc4c(c3C(N)=O)CCCC4)c2)CC1"
observed_value = "57.3%"

[[record]]
molecule = "Nc1ccc2c(c1)C(=O)C(=O)c1ccccc1-2"
observed_value = "57.5%"

[[record]]
molecule = "CS(=O)(=O)Nc1ccc(Br)cc1C(=O)c1ccccc1"
observed_value = "59%"

[[record]]
molecule = "CC1=CC(=O)C=C(C)C1=NOS(=O)(=O)c1ccccc1"
observed_value = "81.2%"

[[record]]
molecule = "C/C(=N\\Nc1ccc(S(N)(=O)=O)cc1[N+](=O)[O-])c1ccc2c(c1)OCO2"
observed_value = "79.8%"

[[record]]
molecule = "COc1cccc2c(SCC(=O)N/N=C/c3ccc(O)cc3O)cc(C)nc12"
observed_value = "62.9%"

[[record]]
molecule = "COc1cc2c(cc1OC)-c1cc(NC3CCCCCCC3)nc(=O)n1CC2"
observed_value = "68.6%"

[[record]]
molecule = "Cc1ccccc1COc1cccc(C)c1C(=O)O"
observed_value = "200%"

[[record]]
molecule = "Cn1c(SCCOc2ccccc2F)nc2ccccc2c1=O"
observed_value = "71.9%"

[[record]]
molecule = "Nc1nc(N)c2sc3nc4c(cc3c2n1)CCC4"
observed_value = "126%"

[[record]]
molecule = "NOC(=O)c1cccnc1SCCc1ccccc1"
observed_value = "125%"

[[record]]
molecule = "CCCCCCCCCCCCCCCC(=O)Nc1cccc(C#CC(=O)c2ccc([N+](=O)[O-])cc2)c1"
observed_value = "186%"

[[record]]
molecule = "O=C(OCC1O[C@@H](OC(=O)c2cc(O)c(O)c(O)c2)[C@@H](OC(=O)c2cc(O)c(O)c(O)c2)[C@@H](OC(=O)c2cc(O)c(O)c(O)c2)[C@@H]1OC(=O)c1cc(O)c(O)c(O)c1)c1cc(O)c(O)c(O)c1 (some centres not stated)"
observed_value = "58.6%"

[[record]]
molecule = "CCOC(=O)Cn1nnnc1C(CC)N(Cc1cccs1)Cc1cc2cc(C)ccc2[nH]c1=O (configuration not stated)"
observed_value = "186%"

[[record]]
molecule = "COc1cccc2sc(Nc3nc(-c4ccccn4)cs3)nc12"
observed_value = "80.4%"

[[record]]
molecule = "N#Cc1c2c(c(-c3ccccc3Cl)[nH]c1=S)CCCC2"
observed_value = "78.4%"

[[record]]
molecule = "O=C(CCl)Nc1cccn2ncnc12"
observed_value = "83%"

[[record]]
molecule = "Cc1cccc(COc2nc3ccccc3cc2C(=O)O)c1"
observed_value = "213%"

[[record]]
molecule = "COc1ccc(-c2cc(-c3ccccc3)c(C#N)c(=S)[nH]2)cc1"
observed_value = "69.8%"

[[record]]
molecule = "COC(=O)C1=NN(C(=O)c2cccc(Br)c2)C(O)(c2ccc(Cl)cc2)C1 (configuration not stated)"
observed_value = "79.1%"

